FYI, the data here is from patent US20240132484A1.

# Tested on: Influenza virus
# assay: organism not typed
# Assay type: cell-based, influenza A virus
# assayConditions: 50 μM; upper part of table (FIG. 5 data), plaque assay
In this section, each of the compounds is paired with its reported Influenza virus titer, 50 μM.
The response must be a number in PFU/virus/ml with no trailing unit.

Examples with their reported Influenza virus titer, 50 μM follow.
In [3]: df
Out[3]:
                                   compound       testtarget  recordednumber
0  COc1ccc(CNCC2CCCCC2)c(OCC(O)CN2CCN(C)CC2)c1 (stereo not drawn)  Influenza virus            2100
1  COc1ccc(CNC2Cc3ccccc3C2)c(OCC(O)CN2CCN(C)CC2)c1 (stereo not drawn)  Influenza virus            1100
2  COc1ccc(CNCCc2ccccc2C)c(OCC(O)CN2CCN(C)CC2)c1 (stereo not drawn)  Influenza virus            1700

GET /value?item= COCCCNCc1ccc(OC)cc1OCC(O)CN1CCN(C)CC1 (stereo not drawn) &field=Influenza virus titer, 50 μM returns 160000

GET /value?item= COc1ccc(CNC2CCCCC2)c(OCC(O)CN2CCN(C)CC2)c1 (stereo not drawn) &field=Influenza virus titer, 50 μM returns 16000

GET /value?item= COc1ccc(CNCCCn2ccnc2C)c(OCC(O)CN2CCN(C)CC2)c1 (stereo not drawn) &field=Influenza virus titer, 50 μM returns 110000
